Source of measurements: PubChem BioAssay (NCATS)

Form field: activity, negative = cell killing (one value per entry).
# protocol: Drug repurposing screens with cells derived from glioblastoma tumor samples (AID 1345199); further: on the % scale 0 is the no-effect control and ±100 the full control effect; nearly all actives have a fitted effect of over 40% in size
# measurement.context: GBM patient neurospheres viability, ATP luminescence, 48 h; at 46 µM (top of the series); tumour line A
Records with an inconclusive call do not appear. Active and inactive are the calls of the source. The call rests on the fitted dose curve; in most records, active means well fitted inhibition curve with a large enough effect; inconclusive means small, poorly fitted or top-dose-only effect; inactive means flat fitted curve, though single readings scatter.

Consider the following illustrative entries.
CCCOC(=O)Cc1ccc(OCC(=O)N(CC)CC)c(OC)c1 ... -27.4% (inactive)
O=C(O)c1nn(Cc2ccc(Cl)cc2Cl)c2ccccc12 ... -31.3% (inactive)
CC(C)C(Br)C(=O)NC(N)=O (stereo not given) ... -8.61% (inactive)
Oc1c(Br)cc(Br)cc1Br ... -28% (inactive)
C[C@H]1C(=O)O[C@@H]2CCN3CC=C(COC(=O)[C@](C)(O)[C@]1(C)O)[C@H]23 ... -27.9% (inactive)
NCc1cccnc1 ... -28.1% (inactive)
CCCCC1C(=O)NC(=O)N(C2CCCCC2)C1=O (stereo not given) ... -28.6% (inactive)
Cc1nnc2n1-c1sc(CCC(=O)N3CCOCC3)cc1C(c1ccccc1Cl)=NC2 ... -18.9% (inactive)
Oc1ccc([C@H]2CNCc3c2ccc(O)c3O)cc1O ... -27.2% (inactive)

// switching to the query compound
Measured activity, negative = cell killing, CN1C(=O)CN=C(c2ccccc2)c2cc([N+](=O)[O-])ccc21 : -31.9% (inactive)

* * *

# measurement.context: Ebola virus entry assay, ratio channel
The source made the active and inactive calls. No rule for the calls is given here.
Hello, when you answer, please use one of the following outcomes: active, inactive

Please review the entries below; each comes with its answer.
CCN(CC)CC(=O)OCC(=O)[C@@]1(O)CC[C@H]2[C@@H]3CCC4=CC(=O)CC[C@]4(C)[C@H]3[C@@H](O)C[C@@]21C ... inactive
CCc1cccc2c(CCO)c[nH]c12 ... inactive
COc1cc(CC#N)cc(OC)c1OC ... inactive
Cc1nnc2n1-c1sc(CCC(=O)N3CCOCC3)cc1C(c1ccccc1Cl)=NC2 ... inactive
CN(C)c1ccc(C(=C2C=CC(=[N+](C)C)C=C2)c2ccc(N(C)C)cc2)cc1 ... active

Exercise: Just curious, what result did COc1cc(CC(C)N)c(OC)cc1Br (stereo not drawn) get here?
Solution: inactive

Exercise: Please share the test call associated with N[C@H](C(=O)O)[C@@H](O)c1ccc(O)c(O)c1 .
Solution: active

Exercise: How did this test come out for COC(=O)C1=C(C)NC(C)=C(C(=O)OCCCN2CCC(c3ccccc3)(c3ccccc3)CC2)C1c1cccc([N+](=O)[O-])c1 (stereo not drawn) ?
Solution: active

Exercise: Tell me the recorded outcome of this test for CCCC(=O)O[C@]1(C(=O)CCl)[C@@H](C)C[C@H]2[C@@H]3CCC4=CC(=O)C=C[C@]4(C)[C@@]3(F)C(=O)C[C@@]21C .
Solution: active

Exercise: Assay result, entry O=C(O)c1cn(-c2ccc(F)cc2)c2cc(N3CCNCC3)c(F)cc2c1=O — outcome?
Solution: inactive

Exercise: How was Cc1cc2c(OCC(CNC(C)(C)C)OC(=O)c3ccccc3)cccc2[nH]1 (stereo not drawn) classified in this test?
Solution: active

Exercise: Please indicate how the test categorized CCCC(C(=O)OCCN(CC)CC)(c1ccccc1)c1ccccc1 .
Solution: active

Exercise: What did this assay record as the result for O=C(NCC1CN(c2ccc(N3CCOCC3=O)cc2)C(=O)O1)c1ccc(Cl)s1 (stereo not drawn) ?
Solution: inactive

Exercise: Would you mind telling me which call this test gave CCOCC(O)COc1ccc(NC(=O)CC[S+](C)C)cc1 (stereo not drawn) ?
Solution: inactive

Exercise: # outcome recorded in this test, key = Cc1ncc(COP(=O)(O)O)c(C=O)c1O
Solution: inactive

Exercise: Please let me know the test result on file for O=c1[nH]c(=O)n([C@H]2C[C@H](O)[C@@H](CO)O2)cc1C(F)(F)F .
Solution: inactive

Exercise: Returns: the outcome recorded for CCCCN=C(N)N=C(N)N in this assay.
Solution: inactive

Exercise: State the result this test recorded for O=C1c2ccccc2S(=O)(=O)N1CCCCN1CCN(c2ncccn2)CC1 .
Solution: inactive

Exercise: What outcome does the record of this test show for C=C[C@@]1(C)CC(=O)[C@]2(O)[C@@]3(C)[C@@H](O)CCC(C)(C)[C@@H]3[C@H](O)[C@H](OC(C)=O)[C@@]2(C)O1 ?
Solution: inactive

Exercise: Please state the recorded outcome for this molecule: CCC(CC)(CC(=O)Nc1cccc(/C=C/c2nc(C3CCC3)cs2)c1)C(=O)O
Solution: inactive

Exercise: Look up the recorded call for C=C1c2cccc(O)c2C(O)=C2C(=O)[C@]3(O)C(O)=C(C(N)=O)C(=O)[C@@H](N(C)C)[C@@H]3[C@@H](O)[C@H]12 in this test.
Solution: active

Exercise: # outcome recorded in this test, key = CCOC(=O)n1ccn(C)c1=S
Solution: inactive

Exercise: Each molecule tested received a call. Report the one for CCC(=O)Oc1ccc2c(c1)CC[C@@H]1[C@@H]2CC[C@@]2(C)[C@H]1C[C@@H](OC(=O)CC)[C@@H]2OC(=O)CC .
Solution: inactive
